Test system: T24 (bladder) cells
TEST DESCRIPTION: MTT cytotoxicity assay, T24
Type: cell-based, human
APPLIED CONDITIONS: 48 h incubation (b12: 72 h), n = 3, read-out: IC50 ± SEM T24
Description: The 3-acyl-2,5-bis(phenylamino)-1,4-benzoquinones 2a–q were evaluated for their in vitro cytotoxic activities against normal human embryonic kidney cells (HEK-293 cells) and two human cancer cell lines (T24 and DU-145 cells) in 72 h drug exposure assays. The cytotoxic activities of the new compounds were measured using conventional microculture tetrazolium reduction assays. The cytotoxic activities are expressed in terms of IC50. […]
ATTRIBUTE MEASURED: IC50 (nM)

COMPOUND	TARGET OF ASSAY	ATTRIBUTE MEASURED	ASSAY RESULT
COc1cccc2c1C(=O)c1c(O)c3c(c(O)c1C2=O)C[C@@](O)(C(=O)CO)C[C@@H]3O[C@H]1C[C@H](N)[C@H](O)[C@H](C)O1 [DOX, Doxorubicin, reference compound]	T24 (bladder) cells	IC50	460

* * *

Reported −E^II 1/2 is given for each of the following compounds.
TEST DESCRIPTION: Half-wave potentials by cyclic voltammetry in acetonitrile
Format: physicochemical
APPLIED CONDITIONS: second one-electron reduction, rt, Pt electrode, vs non-aqueous Ag/Ag+, given as negative of potential

COMPOUND	−E^II 1/2 / mV
COc1cc(NC2=CC(=O)C(Nc3cc(OC)c(OC)c(OC)c3)=C(C(=O)c3ccco3)C2=O)cc(OC)c1OC [2l]	930
COc1ccc(C(=O)C2=C(Nc3cc(OC)c(OC)c(OC)c3)C(=O)C=C(Nc3cc(OC)c(OC)c(OC)c3)C2=O)cc1 [2j]	950
O=C1C=C(Nc2ccc(F)cc2)C(=O)C(C(=O)c2ccccc2)=C1Nc1ccc(F)cc1 [2n]	1040
O=C1C=C(Nc2ccccc2)C(=O)C(C(=O)c2ccco2)=C1Nc1ccccc1 [2g]	870

* * *

TEST DESCRIPTION: Half-wave potentials by cyclic voltammetry in acetonitrile
Type: physicochemical
APPLIED CONDITIONS: first one-electron reduction, rt, Pt electrode, 0.1 M tetraethylammonium tetrafluoroborate, vs non-aqueous Ag/Ag+, given as negative of potential
ATTRIBUTE MEASURED: −E^I 1/2

CHEM SMILES	ATTRIBUTE MEASURED	ASSAY RESULT
CC(=O)C1=C(Nc2ccccc2)C(=O)C=C(Nc2ccccc2)C1=O	−E^I 1/2	565 mV
O=C1C=C(Nc2ccccc2)C(=O)C(C(=O)c2cccs2)=C1Nc1ccccc1	−E^I 1/2	500 mV
CCCCCC(=O)C1=C(Nc2ccccc2)C(=O)C=C(Nc2ccccc2)C1=O	−E^I 1/2	570 mV
O=C1C=C(Nc2ccc(F)cc2)C(=O)C(C(=O)c2ccccc2)=C1Nc1ccc(F)cc1	−E^I 1/2	560 mV
COc1cc(NC2=CC(=O)C(Nc3cc(OC)c(OC)c(OC)c3)=C(C(=O)c3cccs3)C2=O)cc(OC)c1OC	−E^I 1/2	850 mV
COc1ccc(C(=O)C2=C(Nc3ccccc3)C(=O)C=C(Nc3ccccc3)C2=O)cc1OC	−E^I 1/2	560 mV
COc1cc(C(=O)C2=C(Nc3ccc(F)cc3)C(=O)C=C(Nc3ccc(F)cc3)C2=O)ccc1O	−E^I 1/2	550 mV
COc1cc(NC2=CC(=O)C(Nc3cc(OC)c(OC)c(OC)c3)=C(C(=O)c3ccccc3)C2=O)cc(OC)c1OC	−E^I 1/2	800 mV
COc1cc(C(=O)C2=C(Nc3cc(OC)c(OC)c(OC)c3)C(=O)C=C(Nc3cc(OC)c(OC)c(OC)c3)C2=O)ccc1O	−E^I 1/2	610 mV
COc1ccc(C(=O)C2=C(Nc3cc(OC)c(OC)c(OC)c3)C(=O)C=C(Nc3cc(OC)c(OC)c(OC)c3)C2=O)cc1	−E^I 1/2	740 mV
CCCC(=O)C1=C(Nc2ccccc2)C(=O)C=C(Nc2ccccc2)C1=O	−E^I 1/2	570 mV
O=C1C=C(Nc2ccc(F)cc2)C(=O)C(C(=O)c2cccs2)=C1Nc1ccc(F)cc1	−E^I 1/2	730 mV
CCCCCCCC(=O)C1=C(Nc2ccccc2)C(=O)C=C(Nc2ccccc2)C1=O	−E^I 1/2	590 mV

From: paper PMC6539005
